# Tested on: Odoribacter splanchnicus
# assay-text: growth AUC relative to DMSO control (median of replicates) (fraction); higher = more growth (less inhibition), active = hit call of the paper
# experimental-setup: 20 µM; 24 h
parameter-measured: growth AUC

>>> print(df.to_string())
                                    compound       test_result
 0  O=C(O)C1(O)c2ccccc2-c2ccc(Cl)cc21 (stereo not drawn)   1.01 (inactive)
 1  COc1cc(C)c(C(=O)c2c(OC)ccc(Br)c2C)c(OC)c1OC   1.05 (inactive)
 2  COc1cc(OC)n2nc(S(=O)(=O)Nc3c(Cl)ccc(C)c3Cl)nc2n1   1.02 (inactive)
 3                  CCOP(=S)(OCC)SCSC(C)(C)C   1.06 (inactive)
 4                    Cc1occc1C(=O)Nc1ccccc1  0.985 (inactive)
 5  CCOP(=O)(N=C1SCC(C)S1)OCC (stereo not drawn)   1.04 (inactive)
 6               COC(=O)/C(C)=C/OP(=S)(OC)OC   0.95 (inactive)
 7          CCOP(=S)(OCC)Oc1cc(-c2ccccc2)on1   1.01 (inactive)
 8            COP(=S)(OC)Oc1nc(Cl)c(Cl)cc1Cl  0.942 (inactive)
 9                                 C=CC(N)=O   1.01 (inactive)
10      O=[N+]([O-])/N=C1\NCCN1Cc1ccc(Cl)nc1   1.09 (inactive)
11  COc1cnc(OC)n2nc(NS(=O)(=O)c3c(OCC(F)F)cccc3C(F)(F)F)nc12   1.01 (inactive)
12                              CCCN(CCC)N=O   1.06 (inactive)

* * *

# System: Clostridium difficile
# assay-text: growth AUC relative to DMSO control (median of replicates) (fraction); higher = more growth (less inhibition), active = hit call of the paper
# experimental-setup: 20 µM; 24 h
Decide by growth AUC: equal to or exceeding 1 means rule met, less means rule not met.

In [3]: df
Out[3]:
                                   compound  classification
0  CC(=O)CC(c1ccc(Cl)cc1)c1c(O)c2ccccc2oc1=O (stereo unspecified)        rule met
1                CC#Cc1cc(C)nc(Nc2ccccc2)n1    rule not met
2  CCSC(C)CC1CC(=O)C(/C(CC)=N/OC/C=C/Cl)=C(O)C1 (mixture of isomers)        rule met
3  N#Cc1nn(-c2c(Cl)cc(C(F)(F)F)cc2Cl)c(N)c1S(=O)(=O)C(F)(F)F    rule not met

* * *

# Test system: Fusobacterium nucleatum subsp. animalis
# assay-text: growth AUC relative to DMSO control (median of replicates) (fraction); higher = more growth (less inhibition), active = hit call of the paper
# experimental-setup: 20 µM; 24 h
# growth AUC listing for each entry below
parameter-measured: growth AUC

                                   compound  parameter_measured  test_result
0  CNC(=O)O/N=C/C(C)(C)S(C)=O (stereo not drawn)          growth AUC        0.996
1  c1nc[n]([Sn]([CH]2CCCCC2)([CH]2CCCCC2)[CH]2CCCCC2)n1          growth AUC         1.03
2  C[C@@H](Oc1ccc(Oc2ccc(C(F)(F)F)cn2)cc1)C(=O)O          growth AUC         1.06
3       ClC(Cl)=C(c1ccc(Cl)cc1)c1ccc(Cl)cc1          growth AUC         1.03
4  CCO/N=C(\CC)C1=C(O)CC(c2c(C)cc(C)cc2C)CC1=O (stereo not drawn)          growth AUC         1.05
5  FC(F)C(F)(F)OCC(Cn1cncn1)c1ccc(Cl)cc1Cl (stereo not drawn)          growth AUC         1.02
6                  CC(C)N(C(=O)CCl)c1ccccc1          growth AUC        0.911
7                    CNC(=O)Oc1ccccc1OC(C)C          growth AUC        0.994
